From: BigSolDB 2.1

# condition_set: in n-butanol, 278.15 K
parameter_measured: solubility (mole fraction)
One number for each entry.

Could you tell me which solubility (mole fraction) is on file for CC1CCC(=O)C1=O (stereo unspecified) ?
0.0353

---

# condition_set: in methanol, 303.15 K
parameter_measured: solubility (mole fraction)
Numbers only.

Could you tell me which solubility (mole fraction) is on file for CC1CCC(=O)C1=O (stereo unspecified) ?
0.147

---

# condition_set: in isopropanol, 313.15 K
parameter_measured: solubility (mole fraction)
Answers are plain numbers.

Could you tell me which solubility (mole fraction) is on file for CC1CCC(=O)C1=O (stereo unspecified) ?
0.207

---

# condition_set: in 1,2-dichloroethane, 313.15 K
parameter_measured: solubility (mole fraction)

Could you tell me which solubility (mole fraction) is on file for CC1CCC(=O)C1=O (stereo unspecified) ?
0.254
